method: in vitro
setupConditions: rat, gh3-tre-luc cells, AC50 (uM) modified / 1000, Tox21_110001=Tox21_200399; viability, 1 nM T3 present, 24 h
measurementKind: CC50 at 24 h

Exam item: Quote CC50 at 24 h reported for Clc1ccc(Cl)cc1 [1,4-Dichlorobenzene] please.
Marked response: > 90 µM

###

method: in vitro
setupConditions: rat, gh3-tre-luc cells, AC50 (uM) modified / 1000, Tox21_110001=Tox21_201153; viability, 1 nM T3 present, 24 h
measurementKind: CC50 at 24 h
Could you give the number and then its unit, please?

Exam item: Quote CC50 at 24 h reported for C[C@H]1CCCC(=O)CCC/C=C/c2cc(O)cc(O)c2C(=O)O1 [Zearalenone] please.
Marked response: 41.1 µM

###

Please respond with reported CC50 at 24 h for every item in the list.
method: in vitro
setupConditions: rat, gh3-tre-luc cells, AC50 (uM) modified / 1000

Exam item: Quote CC50 at 24 h reported for c1ccc2nccnc2c1 please.
Marked response: > 90 µM

Exam item: Quote CC50 at 24 h reported for O=C(O)CCSSCCC(=O)O please.
Marked response: > 90 µM

Exam item: Quote CC50 at 24 h reported for O=c1cc(-c2ccccc2)oc2cc(O)cc(O)c12 please.
Marked response: 62.4 µM

Exam item: Quote CC50 at 24 h reported for CC(=O)OCC(=O)[C@@]1(O)[C@H](C)C[C@H]2[C@@H]3C[C@H](F)C4=CC(=O)C=C[C@]4(C)[C@H]3[C@@H](O)C[C@@]21C [Paramethasone acetate] please.
Marked response: > 50 µM

Exam item: Quote CC50 at 24 h reported for CCCCCCCCCCCCCCC(Br)C(=O)O (stereo not drawn) please.
Marked response: > 90 µM

Exam item: Quote CC50 at 24 h reported for CCCCC(CC)C(=O)OCCOCCOCCOC(=O)C(CC)CCCC (stereo not drawn) [Triethylene glycol bis(2-ethylhexanoate)] please.
Marked response: > 90 µM

Exam item: Quote CC50 at 24 h reported for N#CCCCC(C#N)CCC#N (stereo not drawn) please.
Marked response: > 90 µM

Exam item: Quote CC50 at 24 h reported for C/C=C(\C)C(=O)OC/C=C(\C)CCC=C(C)C [Geranyl tiglate] please.
Marked response: > 90 µM

Exam item: Quote CC50 at 24 h reported for O=C(OCCCCCCOC(=O)c1ccccc1)c1ccccc1 [Hexane-1,6-diyl dibenzoate] please.
Marked response: > 90 µM

###

Please respond with reported CC50 at 24 h for every item in the list.
method: in vitro
setupConditions: rat, gh3-tre-luc cells, AC50 (uM) modified / 1000
Structures can show the parent of a compound that is named as a salt.

Exam item: Quote CC50 at 24 h reported for CCSC(=O)N(CC(C)C)CC(C)C [Butylate] please.
Marked response: > 90 µM

Exam item: Quote CC50 at 24 h reported for COC(=O)[C@@H]1[C@H]2CC[C@@H](C[C@H]1OC(=O)c1ccccc1)N2C [Allococaine hydrochloride] please.
Marked response: > 50 µM

Exam item: Quote CC50 at 24 h reported for COC(=O)C(C)N(C(=O)Cc1ccccc1)c1c(C)cccc1C (centres unmarked) [Benalaxyl] please.
Marked response: > 90 µM

Exam item: Quote CC50 at 24 h reported for O=C1CCCC(=O)O1 [Glutaric anhydride] please.
Marked response: > 90 µM

Exam item: Quote CC50 at 24 h reported for CCCCOCCOC(=O)c1ccccc1C(=O)OCCOCCCC [Bis(2-butoxyethyl) phthalate] please.
Marked response: > 90 µM

###

System: GH3-TRE-Luc cell line
setupConditions: read-out: AC50 (uM) modified / 1000; Tox21_110001=Tox21_303252; viability, 1 nM T3 present, 24 h
measurementKind: CC50 (µM)
Report only the number, with the unit µM understood.

Exam item: Quote CC50 reported for C=CC(=O)OCC(CO)(COC(=O)C=C)COC(=O)C=C [Pentaerythritol triacrylate] please.
Marked response: 2.61

###

method: in vitro
setupConditions: rat, gh3-tre-luc cells, AC50 (uM) modified / 1000
Please respond with reported CC50 at 24 h for every item in the list.

Exam item: Quote CC50 at 24 h reported for CCOC(=O)CCC(=O)OCC [Diethyl butanedioate] please.
Marked response: > 90 µM

Exam item: Quote CC50 at 24 h reported for c1ccc2occc2c1 please.
Marked response: > 90 µM

Exam item: Quote CC50 at 24 h reported for CCCCCCOCCOCCO [2-[2-(Hexyloxy)ethoxy]ethanol] please.
Marked response: > 90 µM

Exam item: Quote CC50 at 24 h reported for CCC(CC)(CC(=O)Nc1cccc(/C=C/c2nc(C3CCC3)cs2)c1)C(=O)O please.
Marked response: > 50 µM

Exam item: Quote CC50 at 24 h reported for COC(=O)c1cc(C(=O)OC)cc(S(=O)(=O)O)c1 please.
Marked response: > 90 µM

Exam item: Quote CC50 at 24 h reported for O=c1ssc(Cl)c1Cl please.
Marked response: 48 µM

Exam item: Quote CC50 at 24 h reported for CCCN(CCC)c1c([N+](=O)[O-])cc(C(F)(F)F)c(N)c1[N+](=O)[O-] please.
Marked response: 14.5 µM

Exam item: Quote CC50 at 24 h reported for NC(=O)Cc1cccc(C(=O)c2ccccc2)c1N please.
Marked response: > 50 µM

Exam item: Quote CC50 at 24 h reported for Cc1c(C(N)=O)cc([N+](=O)[O-])cc1[N+](=O)[O-] please.
Marked response: > 90 µM

Exam item: Quote CC50 at 24 h reported for COc1ccc2c(c1)c1c3n2CCN(C)C3=NCC1 please.
Marked response: > 50 µM

###

method: in vitro
setupConditions: rat, gh3-tre-luc cells, AC50 (uM) modified / 1000, Tox21_110001=Tox21_302247; viability, 1 nM T3 present, 24 h
measurementKind: CC50 at 24 h

Exam item: Quote CC50 at 24 h reported for CCC(Br)(CC)C(=O)NC(N)=O please.
Marked response: > 90 µM

###

Please respond with reported CC50 at 24 h for every item in the list.
method: in vitro
setupConditions: rat, gh3-tre-luc cells, AC50 (uM) modified / 1000
Structures can show the parent of a compound that is named as a salt.

Exam item: Quote CC50 at 24 h reported for CC(C)COC(=O)c1ccccc1C(=O)OCC(C)C [Diisobutyl phthalate] please.
Marked response: > 90 µM

Exam item: Quote CC50 at 24 h reported for CNC(=O)O/N=C/C(C)(C)SC [Aldicarb] please.
Marked response: > 90 µM

Exam item: Quote CC50 at 24 h reported for CC(N/C(=N\C#N)Nc1ccncc1)C(C)(C)C (centres unmarked) [Pinacidil monohydrate] please.
Marked response: > 50 µM

Exam item: Quote CC50 at 24 h reported for O=C(O)c1cccnc1Nc1cccc(C(F)(F)F)c1 [Niflumic acid] please.
Marked response: > 50 µM

Exam item: Quote CC50 at 24 h reported for CNCc1cc(F)ccc1Oc1ccc(Cl)c(Cl)c1 [CP-607366] please.
Marked response: 77.7 µM

Exam item: Quote CC50 at 24 h reported for CCCCNc1ccc(C(=O)OCCN(C)C)cc1 [Tetracaine hydrochloride] please.
Marked response: > 20 µM

Exam item: Quote CC50 at 24 h reported for CCN(CC)CCc1nc(-c2ccccc2)no1 [Oxalamine citrate] please.
Marked response: > 20 µM

Exam item: Quote CC50 at 24 h reported for O=Cc1cccc(Br)c1 [3-Bromobenzaldehyde] please.
Marked response: > 90 µM

Exam item: Quote CC50 at 24 h reported for CC1(C)[C@H]2CC[C@]1(C)[C@H](O)C2 [[(1S)-endo]-(-)-Borneol] please.
Marked response: > 90 µM

Exam item: Quote CC50 at 24 h reported for CC(C)C1(C)N=C(c2ncccc2C(=O)O)NC1=O (centres unmarked) [Imazapyr] please.
Marked response: > 90 µM

Exam item: Quote CC50 at 24 h reported for CCOC(=O)Cc1cccc2ccccc12 [Ethyl 1-naphthaleneacetate] please.
Marked response: > 90 µM

Exam item: Quote CC50 at 24 h reported for CN(C)C(C)(C)CO [2-(Dimethylamino)-2-methylpropan-1-ol] please.
Marked response: > 90 µM

Exam item: Quote CC50 at 24 h reported for CCC[C@H](N[C@@H](C)C(=O)N1[C@H](C(=O)O)C[C@@H]2CCCC[C@@H]21)C(=O)OCC [Perindopril] please.
Marked response: > 50 µM

Exam item: Quote CC50 at 24 h reported for COC(=O)C1=C(C#N)NC(C)=C(C(=O)OC(C)C)C1c1cccc([N+](=O)[O-])c1 (centres unmarked) [Nilvadipine] please.
Marked response: 27.9 µM

Exam item: Quote CC50 at 24 h reported for C=CCC=CC [1,4-Hexadiene] please.
Marked response: > 90 µM

Exam item: Quote CC50 at 24 h reported for CN(CCO)CC(O)Cn1cnc2c1c(=O)n(C)c(=O)n2C (centres unmarked) [Xanthinol niacinate] please.
Marked response: > 50 µM

Exam item: Quote CC50 at 24 h reported for N#CCN(CC#N)CCN(CC#N)CC#N [(Ethylenedinitrilo)tetraacetonitrile] please.
Marked response: > 90 µM

Exam item: Quote CC50 at 24 h reported for CN(C)CCOCCO [2-[2-(Dimethylamino)ethoxy]ethanol] please.
Marked response: > 90 µM

Exam item: Quote CC50 at 24 h reported for CC1(C)CC(O)CC(C)(C)N1 [2,2,6,6-Tetramethyl-4-piperidinol] please.
Marked response: > 90 µM

Exam item: Quote CC50 at 24 h reported for CCCCOc1ccc(CC(=O)NO)cc1 [Bufexamac] please.
Marked response: > 20 µM
